FYI, the data here is from the kinase profiling compilation of Christmann-Franck et al. (2016).

# maps each entry to its kinase still bound, per cent of control
assay-target: WEE1 (human) (UniProt P30291)
Sequence (P30291 whole entry, looked up): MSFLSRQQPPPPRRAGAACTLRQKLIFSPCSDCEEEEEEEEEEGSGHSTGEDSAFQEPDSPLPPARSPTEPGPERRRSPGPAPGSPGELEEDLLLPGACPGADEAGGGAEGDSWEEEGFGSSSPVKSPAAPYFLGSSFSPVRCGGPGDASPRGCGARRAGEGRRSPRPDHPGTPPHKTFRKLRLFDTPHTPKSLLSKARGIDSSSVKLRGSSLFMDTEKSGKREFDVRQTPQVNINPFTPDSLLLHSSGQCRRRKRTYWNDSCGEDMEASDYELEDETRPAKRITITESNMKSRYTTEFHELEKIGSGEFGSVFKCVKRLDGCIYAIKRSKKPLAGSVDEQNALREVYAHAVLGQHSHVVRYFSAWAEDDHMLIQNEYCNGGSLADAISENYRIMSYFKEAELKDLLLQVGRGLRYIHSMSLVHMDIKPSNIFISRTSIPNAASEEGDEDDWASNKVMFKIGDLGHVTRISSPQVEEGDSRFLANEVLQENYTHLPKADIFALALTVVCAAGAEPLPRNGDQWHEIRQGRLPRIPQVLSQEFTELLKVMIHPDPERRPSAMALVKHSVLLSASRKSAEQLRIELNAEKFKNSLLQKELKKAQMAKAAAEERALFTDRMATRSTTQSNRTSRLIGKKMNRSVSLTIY
procedure-text: KINOMEscan competition binding
cond: compound 10.0 µM
Report the value in % with no unit label.

Answered cases to consult:
>>> observed_value("CNC(=O)Nc1ccc(-c2nc(N3CC4CCC(C3)O4)c3cnn(C4CCC5(CC4)OCCO5)c3n2)cc1")
79
>>> observed_value("CCOc1cc(N2CCC(O)CC2)ccc1Nc1ncc2c(n1)N(C)c1ccccc1C(=O)N2C")
100
>>> observed_value("C=CC(=O)Nc1ccc(C(=O)c2sc(Nc3ccc(N4CCN(C)CC4)cc3OC)nc2N)cc1")
100

Task: For `CC(=O)c1c(C)c2cnc(Nc3ccc(N4CCNCC4)cn3)nc2n(C2CCCC2)c1=O` , what is its reported kinase still bound, per cent of control?
Result: 36

* * *

System: RET (human), P07949 [V804L]
Sequence (P07949 whole entry V804L, looked up): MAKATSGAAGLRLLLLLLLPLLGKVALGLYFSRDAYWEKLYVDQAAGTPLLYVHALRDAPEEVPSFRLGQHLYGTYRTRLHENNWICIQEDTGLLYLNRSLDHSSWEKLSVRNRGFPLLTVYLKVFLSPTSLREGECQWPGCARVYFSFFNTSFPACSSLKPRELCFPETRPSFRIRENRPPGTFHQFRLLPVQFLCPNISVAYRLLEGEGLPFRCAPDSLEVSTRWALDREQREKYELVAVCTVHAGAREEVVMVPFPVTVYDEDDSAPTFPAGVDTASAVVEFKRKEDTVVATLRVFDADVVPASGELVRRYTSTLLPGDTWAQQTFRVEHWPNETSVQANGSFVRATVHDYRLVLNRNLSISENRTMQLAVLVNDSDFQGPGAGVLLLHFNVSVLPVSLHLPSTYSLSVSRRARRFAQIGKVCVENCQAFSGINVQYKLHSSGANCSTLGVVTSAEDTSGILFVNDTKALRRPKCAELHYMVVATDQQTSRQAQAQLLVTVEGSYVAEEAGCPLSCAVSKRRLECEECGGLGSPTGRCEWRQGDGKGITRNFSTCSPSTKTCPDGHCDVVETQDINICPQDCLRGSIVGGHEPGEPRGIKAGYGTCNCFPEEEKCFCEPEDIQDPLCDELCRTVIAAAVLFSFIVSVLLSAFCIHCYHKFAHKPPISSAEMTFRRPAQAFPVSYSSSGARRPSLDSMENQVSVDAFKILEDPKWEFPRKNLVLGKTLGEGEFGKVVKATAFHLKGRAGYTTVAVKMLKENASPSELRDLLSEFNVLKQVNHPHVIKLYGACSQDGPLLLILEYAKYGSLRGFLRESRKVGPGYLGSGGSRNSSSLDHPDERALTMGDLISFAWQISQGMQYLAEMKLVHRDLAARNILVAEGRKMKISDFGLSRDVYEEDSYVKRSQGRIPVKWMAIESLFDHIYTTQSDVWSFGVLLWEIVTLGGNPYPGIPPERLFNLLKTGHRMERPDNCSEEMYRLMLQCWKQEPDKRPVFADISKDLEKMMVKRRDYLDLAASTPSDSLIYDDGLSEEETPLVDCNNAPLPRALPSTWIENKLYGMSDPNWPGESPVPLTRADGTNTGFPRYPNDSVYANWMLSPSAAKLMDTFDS
procedure-text: KINOMEscan competition binding
cond: compound 10.0 µM
# maps each entry to its kinase still bound, per cent of control
Please append the unit to your numeric answer.

Answered cases to consult:
>>> observed_value("O=C(O)c1ccc(Nc2ncc3c(n2)-c2ccc(Cl)cc2C(c2c(F)cccc2F)=NC3)cc1")
"88%"
>>> observed_value("Cc1cc([C@@H](C)Nc2ccccc2C(=O)O)c2nc(N3CCOCC3)cc(=O)n2c1")
"99%"
>>> observed_value("COc1cc(N2CCN(C)CC2)ccc1Nc1nc(N)c(C(=O)c2c(Cl)cccc2Cl)s1")
"100%"

Task: For `CC(=O)c1c(C)c2cnc(Nc3ccc(N4CCNCC4)cn3)nc2n(C2CCCC2)c1=O` , what is its reported kinase still bound, per cent of control?
Result: 65%

Task: Then what about the compound `COc1cc(C(=O)N2CCC(N3CCN(C)CC3)CC2)ccc1Nc1ncc2c(n1)N(C)c1ccccc1C(=O)N2C` ?
Result: 89%

* * *

# maps each entry to its kinase still bound, per cent of control
assay-target: STK38L (human) (UniProt Q9Y2H1)
Sequence (Q9Y2H1 whole entry, looked up): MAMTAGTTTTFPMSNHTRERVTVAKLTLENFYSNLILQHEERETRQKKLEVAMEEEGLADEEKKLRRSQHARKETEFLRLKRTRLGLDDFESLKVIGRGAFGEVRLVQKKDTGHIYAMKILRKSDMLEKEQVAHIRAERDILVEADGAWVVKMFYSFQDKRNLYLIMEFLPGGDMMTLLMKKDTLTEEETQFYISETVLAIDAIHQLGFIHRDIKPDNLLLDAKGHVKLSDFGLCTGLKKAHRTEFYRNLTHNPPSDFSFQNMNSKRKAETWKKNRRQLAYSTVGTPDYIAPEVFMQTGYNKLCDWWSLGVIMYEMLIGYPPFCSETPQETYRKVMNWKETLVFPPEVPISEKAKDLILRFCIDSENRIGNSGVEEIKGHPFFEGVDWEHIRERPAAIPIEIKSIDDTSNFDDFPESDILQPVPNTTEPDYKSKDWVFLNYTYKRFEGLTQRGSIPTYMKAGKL
procedure-text: KINOMEscan competition binding
cond: compound 10.0 µM
Report the value in % with no unit label.

>>> observed_value("CNC(=O)Nc1ccc(-c2nc(N3CC4CCC(C3)O4)c3cnn(C4CCC5(CC4)OCCO5)c3n2)cc1")
100
>>> observed_value("COc1ccc(N(C(=O)Oc2cc(C(=O)Nc3cccc(C(F)(F)F)c3)ccc2C)c2ccnc(Nc3ccc(N4CCN(C)CC4)cc3)n2)c(OC)c1")
100
>>> observed_value("COc1cc(C)c(Sc2cnc(NC(=O)c3ccc(CNC(C)C(C)C)cc3)s2)cc1C(=O)N1CCN(C(C)=O)CC1 (centres undefined)")
7

Task: What reported kinase still bound, per cent of control corresponds to `CCN(CCO)CCCOc1ccc2c(Nc3cc(CC(=O)Nc4cccc(F)c4)[nH]n3)ncnc2c1` on STK38L (human) (UniProt Q9Y2H1)?
Result: 100

* * *

assay-target: AURKB (human) (UniProt Q96GD4)
Sequence (Q96GD4 whole entry, looked up): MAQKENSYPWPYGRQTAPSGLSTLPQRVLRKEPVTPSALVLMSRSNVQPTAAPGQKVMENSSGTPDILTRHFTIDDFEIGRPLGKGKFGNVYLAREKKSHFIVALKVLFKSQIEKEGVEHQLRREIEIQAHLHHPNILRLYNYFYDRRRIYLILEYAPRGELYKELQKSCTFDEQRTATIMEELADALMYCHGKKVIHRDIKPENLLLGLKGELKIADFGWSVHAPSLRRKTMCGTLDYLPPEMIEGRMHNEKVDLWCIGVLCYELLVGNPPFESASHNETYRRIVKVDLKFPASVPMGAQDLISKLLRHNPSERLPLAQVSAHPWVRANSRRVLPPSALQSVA
procedure-text: KINOMEscan competition binding
cond: compound 10.0 µM
Entries whose kinase still bound, per cent of control is below 60% take MET; entries at or above 60% take NOT MET.

Task: Quick check: does `C=CC(=O)Nc1ccc(C(=O)c2sc(Nc3ccc(N4CCN(C)CC4)cc3OC)nc2N)cc1` have kinase still bound, per cent of control under 60%?
Result: NOT MET

Task: Then what about the molecule `CCCS(=O)(=O)Nc1ccc(F)c(C(=O)c2c[nH]c3ncc(Cl)cc23)c1F` ?
Result: MET

Task: Then what about the molecule `COc1cc2ncnc(Nc3cccc(Cl)c3)c2cc1OC` ?
Result: MET
